- Test system: SN12C renal
- measurementProtocol: NCI-60 one-dose screen, 48 h
- reportedConditions: 10 µM unless noted
Compounds without any hit were thinned out: in the full panel of roughly 83,000, 20% have a hit. The source made the active and inactive calls. Rule for the calls: active = growth percent below 10; inactive = the rest.
Would you mind answering with one of these outcomes? active, inactive

1) Cc1nc(/N=C(\N)NC(=O)Nc2cccc(Cl)c2)sc1C :: inactive
2) Nc1cc2c(cc1Br)-c1cc(Cl)ccc1C2=O :: inactive
3) COc1ccc(CN2c3ccccc3CCc3ccccc32)cc1F :: inactive
4) O=C1NC(=O)C(Cn2cnc3ccccc32)N1 (stereo unspecified) :: inactive
5) CCCCCCNC(=O)Oc1ccc(/C(=C(\C)c2ccc(Cl)cc2)c2ccc(OCCN(CC)CC)cc2)cc1 :: inactive

Q: Could you check what this test reported for "Brc1c[n+](Cc2ccc3ccccc3c2)cn1Cc1ccc2ccccc2c1" ?
Result: inactive

Q: Could you check what this test reported for "COC(=O)[C@H](C)NC(=O)NC(=O)NC(=O)CI" ?
Result: inactive
